Can you tell me growth for the items I'm about to list?
System: HS 578T breast
assay.name: NCI-60 one-dose screen, 48 h (100 = growth as untreated, 0 = no growth, -100 = all killed)
condition.summary: 10 µM
About 83,000 compounds went through this panel and 20% of them were active in at least one assay; those are over-represented in the sample as a whole.
Give the quantity in %, number only.

Task: Bench note: what growth did O=C(Nc1cccc(Cl)c1)Nc1cc2ncncc2cc1OCc1cccc(F)c1 show?
Result: 45.9

Task: Bench note: what growth did Cc1ccc(-c2cc(-c3cccc(Nc4ccnc5cc(Cl)ccc45)c3)nc3nc(N)[nH]c(=O)c23)cc1 show?
Result: 104

Task: Bench note: what growth did Cc1ccc(-n2c(-c3cc4c([nH]c5ccccc54)c(-c4cccc(O)c4)n3)n[nH]c2=S)cc1 show?
Result: 23.4

Task: Bench note: what growth did C#C[C@]1(O)CC[C@H]2[C@@H]3CC[C@H]4CC(F)(F)CC[C@]4(C)[C@H]3CC[C@@]21C show?
Result: 77.6

Task: Bench note: what growth did COc1ccc(-c2nc3sc(-c4ccccc4)c(-c4ccccc4)n3c2/C=C/c2ccc(F)cc2)cc1 show?
Result: 95.8

Task: Bench note: what growth did CCCCN(CCCC)c1ccc(C(=NC(C)CCCN(CC)CC)c2ccc(N(C)C)cc2)cc1 (configuration not stated) show?
Result: -49.8

Task: Bench note: what growth did N#C/C(=C\N1C(=O)/C(=C/c2cccc([N+](=O)[O-])c2)SC1=S)c1nc2ccccc2s1 show?
Result: 95.9

* * *

Test system: UACC-62 melanoma
assay.name: NCI-60 one-dose screen, 48 h
condition.summary: 10 µM
This is part of a sample that, as a whole, favours compounds with a hit. Of some 83,000 tested, about 20% had one in any assay. The source made the active and inactive calls. How the source made its calls: active means growth percent below 10; inactive means the rest.
Valid outcomes are listed here; reply with one: active, inactive

Task: Kindly provide the recorded test outcome for the following compound: [O-]c1c[n+](-c2ccc(Cl)cc2)no1
Result: inactive

Task: Kindly provide the recorded test outcome for the following compound: N=C(N)c1ccc(-c2ccc(-c3ccccc3)s2)s1
Result: active

Task: Kindly provide the recorded test outcome for the following compound: COc1ccc(C(C)=O)cc1N1C(=O)C2C(C1=O)C1(c3ccccc3)C(=O)C2(c2ccccc2)C(c2ccc(C)cc2)=C1c1ccc(C)cc1 (stereo not given)
Result: active

Task: Kindly provide the recorded test outcome for the following compound: COc1ccc(-c2csc(NC(=O)CO[N+](=O)[O-])n2)cc1
Result: inactive

Task: Kindly provide the recorded test outcome for the following compound: O=NN(CCCl)C(=O)NCc1ccc(-c2ccc(CNC(=O)N(CCCl)N=O)cc2)cc1
Result: inactive

Task: Kindly provide the recorded test outcome for the following compound: CCCCOCCOCCOCc1cc2c(cc1Br)OCO2
Result: inactive

Task: Kindly provide the recorded test outcome for the following compound: O=c1ccc2nc(-c3ccccc3)nn(-c3ccccc3)c-2c1
Result: inactive

Task: Kindly provide the recorded test outcome for the following compound: Cc1c(C(=O)N[C@H](CO)Cc2ccccc2)[nH]c2ccc(Cl)cc2c1=O
Result: inactive

Task: Kindly provide the recorded test outcome for the following compound: COc1cc2ccnc(C=O)c2cc1OC
Result: inactive

Task: Kindly provide the recorded test outcome for the following compound: O=C(COc1ccc(-c2nc3ccccc3[nH]2)cc1)N=Nc1c(O)[nH]c2ccccc12
Result: inactive

Task: Kindly provide the recorded test outcome for the following compound: CCN1CCN(c2ccc(Nc3ncnc4c3nnn4CCc3cc(OC)cc(OC)c3)cc2)CC1
Result: inactive

Task: Kindly provide the recorded test outcome for the following compound: CCCCCCCCCCCCCC[n+]1ccccc1
Result: active

Task: Kindly provide the recorded test outcome for the following compound: CCOC(=O)[C@@H](Cc1ccccc1)NC(=O)c1[nH]c2ccc(Cl)cc2c(=O)c1C
Result: inactive

Task: Kindly provide the recorded test outcome for the following compound: COc1ccc(-c2csc(-c3cc(Cl)cc(Cl)c3Cl)n2)cc1
Result: inactive

Task: Kindly provide the recorded test outcome for the following compound: CCCCCCCCCCN=C(c1ccc(N(C)C)cc1)c1ccc(N(C)C)cc1
Result: inactive

Task: Kindly provide the recorded test outcome for the following compound: O=C1CC[C@@H](C(=O)N[C@H]2CSSC[C@@H](C(=O)NCCc3ccccc3)NC(=O)[C@H](Cc3ccccc3)NC(=O)[C@@H]3CCCN3C(=O)[C@@H]3CCCN3C2=O)N1
Result: inactive

Task: Kindly provide the recorded test outcome for the following compound: O/N=C1\CCC2CCCCC2C1 (stereo not given)
Result: inactive

Task: Kindly provide the recorded test outcome for the following compound: O=C(NCc1cn(Cc2cccc(Oc3ccccc3)c2)nn1)c1cccnc1Nc1ccccc1
Result: inactive

Task: Kindly provide the recorded test outcome for the following compound: CCN1CCOC1C(C)C (stereo not given)
Result: inactive

Task: Kindly provide the recorded test outcome for the following compound: N#Cc1ncc(-c2cc(F)ccc2F)c(NC2CCCCCC2)n1
Result: inactive

Task: Kindly provide the recorded test outcome for the following compound: O=C1CC[C@@H](C(=O)N[C@H]2CSSC[C@@H](C(=O)N/C=C/c3ccc(O)cc3)NC(=O)[C@H](Cc3ccccc3)NC(=O)[C@@H]3CCCN3C(=O)[C@@H]3CCCN3C2=O)N1
Result: inactive

Task: Kindly provide the recorded test outcome for the following compound: CCCCn1c(=O)[nH]c2c(c1=O)C(c1ccc(Cl)cc1)c1c([nH]c(=O)n(CCCC)c1=O)N2
Result: inactive

Task: Kindly provide the recorded test outcome for the following compound: CC(=O)Nc1nc(C)c(C(=O)NNC=O)s1
Result: inactive

Task: Kindly provide the recorded test outcome for the following compound: COc1ccc2nc(C)cc(Nc3ccc(Cl)cc3)c2c1
Result: inactive

Task: Kindly provide the recorded test outcome for the following compound: O=C(Nc1cccc(Cl)c1)Nc1cc2ncncc2cc1OCc1cccc(F)c1
Result: active

Task: Kindly provide the recorded test outcome for the following compound: COc1ccc(-c2ccc(-c3ccc(C(=N)N)c(F)c3)s2)cc1
Result: active

Task: Kindly provide the recorded test outcome for the following compound: CCOC(=O)C(=O)Cc1cccnn1
Result: inactive

Task: Kindly provide the recorded test outcome for the following compound: COc1ccc2nc(NC(=O)Nc3c(F)cccc3F)sc2c1
Result: inactive

Task: Kindly provide the recorded test outcome for the following compound: N=C(N)c1ccc(-c2ccc(-c3cccs3)s2)nc1
Result: inactive

Task: Kindly provide the recorded test outcome for the following compound: CCc1c(C(=O)NCc2c(O)ccc3cccc(O)c23)[nH]c(C)c1C(C)=O
Result: inactive

Task: Kindly provide the recorded test outcome for the following compound: CCCCCCCOc1cccc(/C=C2/C(=O)N=C3SCCCN32)c1
Result: inactive

Task: Kindly provide the recorded test outcome for the following compound: CCCCCCCCCCCC(=O)NCCCN(C)C
Result: inactive

Task: Kindly provide the recorded test outcome for the following compound: Cc1ccc(-c2cc(C(=O)Nc3ccc(S(=O)(=O)N4CCCCC4)cc3)[nH]n2)c(O)c1
Result: inactive

Task: Kindly provide the recorded test outcome for the following compound: COc1ccc(-c2nc(-c3nc4ccc(C)cc4[nH]3)c3ccccn23)cc1
Result: inactive

Task: Kindly provide the recorded test outcome for the following compound: COc1ccccc1Cn1cc2c(c1-c1ccccc1)CCc1cnoc1-2
Result: inactive

* * *

Tested on: OVCAR-4 ovarian
assay.name: NCI-60 one-dose screen, 48 h (100 = growth as untreated, 0 = no growth, -100 = all killed)
condition.summary: 10 µM
Compounds without any hit were thinned out: in the full panel of roughly 83,000, 20% have a hit. Activity calls are given as the source filed them. Rule for the calls: active = growth percent below 10; inactive = the rest.
property: growth

Task: Bench note: what growth did CCC(OC(=O)CC(C)C)c1ccccc1 (stereo not drawn) show?
Result: 112% (inactive)

Task: Bench note: what growth did Nc1ncncc1-c1ccc(F)cc1 show?
Result: 107% (inactive)

Task: Bench note: what growth did O=C1/C(=C/c2ccc(O)cc2)Cc2ccc(Cl)cc21 show?
Result: 85.5% (inactive)

* * *

Tested on: 786-0 renal
assay.name: NCI-60 one-dose screen, 48 h (100 = growth as untreated, 0 = no growth, -100 = all killed)
condition.summary: 10 µM
Protocol: Cells are grown in 96 well plates and exposed to the test compound for 48 hours. Compounds are tested at a single concentration, which is 10^-5 M for most compounds. The reported endpoint is percent growth (GI% or GIPRCNT), where numbers from 0 - 100% represent growth inhibition, and numbers from -100% - 0 represent cell death. For example, a value of 40 represents 60% growth inhibition. A value of 0 means no net growth occurred over the course of the experiment. […]
This is part of a sample that, as a whole, favours compounds with a hit. Of some 83,000 tested, about 20% had one in any assay. Active and inactive are the calls of the source. Rule for the calls: active = growth percent below 10; inactive = the rest.
property: growth

Task: Bench note: what growth did CCCCCCCCCCN=C(c1ccc(N(C)C)cc1)c1ccc(N(C)C)cc1 show?
Result: 48.8% (inactive)

Task: Bench note: what growth did O=C(N/N=C/c1ccccc1O)c1ccccc1 show?
Result: 17.9% (inactive)

Task: Bench note: what growth did O=C(/C=C/c1ccc(Cl)cc1)c1ccc(Br)cc1 show?
Result: 81.1% (inactive)

Task: Bench note: what growth did COC(=O)[C@]12CC[C@@H](C)[C@H](C)[C@@H]1C1=CC[C@@H]3[C@@]4(C)C/C(=N\O)[C@H](O)[C@@]5(C)COC(=C45)C[C@@]3(C)[C@]1(C)CC2 show?
Result: -81% (active)

Task: Bench note: what growth did COCCOC(=O)NC(=O)Nc1ccc(C(=O)c2ccc(Cl)cc2)cc1 show?
Result: 47% (inactive)

Task: Bench note: what growth did Nc1nc(SCC#CCCl)c2[nH]cnc2n1 show?
Result: 41.5% (inactive)

Task: Bench note: what growth did O=C(NC1CCCC1)c1ccc(N2CCC(NCc3cccc(C(F)(F)F)c3)CC2)cc1 show?
Result: 84.3% (inactive)

Task: Bench note: what growth did COC(=O)c1cnc2c(c1)Oc1ccc(Cl)cc1-c1cc(C)nn1-2 show?
Result: 97.5% (inactive)

Task: Bench note: what growth did CCCCCCN=C(N)CCCCCCCCCCC(N)=NCCCCCC show?
Result: 37% (inactive)

Task: Bench note: what growth did CCCC(C)c1ccc(OCCCCCCN2CCNCC2)cc1 (configuration not stated) show?
Result: -21.1% (active)

Task: Bench note: what growth did COc1cc(-c2cc(-c3ccc(C)cc3)nc3nc(N)[nH]c(=O)c23)ccc1Oc1ccnc2cc(Cl)ccc12 show?
Result: 98.1% (inactive)

Task: Bench note: what growth did CCCCCCCCCCCCCC[n+]1ccccc1 show?
Result: -53.5% (active)

Task: Bench note: what growth did COc1cccc2c1C(=O)c1c(O)c3c(c(O)c1C2=O)C[C@@](O)(C(=O)COC(=O)c1cccnc1)C[C@@H]3OC1CC(N)C(O)C(C)O1 (some centres not stated) show?
Result: 3.23% (active)

Task: Bench note: what growth did Nc1cc(O)cc(O)c1 show?
Result: 93.9% (inactive)

Task: Bench note: what growth did O=C(CCl)N1c2ccccc2Sc2ccc3ccccc3c21 show?
Result: -62.8% (active)

Task: Bench note: what growth did CCCCCc1cc[n+](CC(=O)c2ccc(Cl)cc2)cc1 show?
Result: 76.2% (inactive)

Task: Bench note: what growth did COc1cc(-c2cc(-c3cc(OC)c(OC)c(OC)c3)nc3nc(N)[nH]c(=O)c23)ccc1Oc1ccnc2cc(Cl)ccc12 show?
Result: 51.4% (inactive)

Task: Bench note: what growth did COc1cc2ccnc(C=O)c2cc1OC show?
Result: 99.9% (inactive)

Task: Bench note: what growth did S=C(Cc1ccc(-c2ccccc2)cc1)N1CCOCC1 show?
Result: 93.6% (inactive)

Task: Bench note: what growth did COc1ccc(C2CC(c3ccc(-c4ccccc4)cc3)=NN2c2ccc(S(N)(=O)=O)cc2)cc1 (configuration not stated) show?
Result: 92.1% (inactive)

Task: Bench note: what growth did O=CNc1c(Cl)cc2c(c1Cl)Cc1cc([N+](=O)[O-])ccc1-2 show?
Result: 109% (inactive)

Task: Bench note: what growth did CCOC(=O)c1c(O)c2cc(-c3ccccc3)nc(OCC)c2c(=O)n1C show?
Result: 94% (inactive)

Task: Bench note: what growth did CCCCCN(CCCCC)C(C)C(O)c1ccc2cc(Cl)c3ccccc3c2c1 (configuration not stated) show?
Result: 98.5% (inactive)

Task: Bench note: what growth did COc1ccc(Cn2cc3c(c2-c2cc(OC)c(OC)c(OC)c2)CCc2cnoc2-3)cc1N show?
Result: 15.8% (inactive)

Task: Bench note: what growth did Cc1nnc2c3nnc(-c4ccc(Cl)cc4)n3c3ccccc3n12 show?
Result: 97.2% (inactive)

Task: Bench note: what growth did CCCCC(CC#N)(CCC)CCC show?
Result: 95.5% (inactive)

Task: Bench note: what growth did COc1cc(CSc2nc3ccc(C)cc3c(=O)n2-c2ccccc2)cc(OC)c1OC show?
Result: 37.6% (inactive)
